Listing: log10 of Ke of selected compounds
biological target: Kappa-type opioid receptor (Homo sapiens) (UniProt P41145); experiment: Antagonist activity at human cloned kappa opioid receptor expressed in CHO cells assessed as inhibition of U69593-stimulated [35S]GTPgammaS binding; format: functional, cell-based
Sequence (P41145 whole entry): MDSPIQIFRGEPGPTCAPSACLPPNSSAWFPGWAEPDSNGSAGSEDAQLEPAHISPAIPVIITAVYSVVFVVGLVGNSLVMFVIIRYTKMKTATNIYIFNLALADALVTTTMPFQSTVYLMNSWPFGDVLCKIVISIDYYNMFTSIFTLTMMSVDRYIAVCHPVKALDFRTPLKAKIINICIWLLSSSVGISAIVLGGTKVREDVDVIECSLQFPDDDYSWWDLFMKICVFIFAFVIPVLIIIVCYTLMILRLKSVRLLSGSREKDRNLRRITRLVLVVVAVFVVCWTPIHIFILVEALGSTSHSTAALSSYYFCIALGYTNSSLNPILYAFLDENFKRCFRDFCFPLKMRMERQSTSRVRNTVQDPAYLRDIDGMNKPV
Heads up: the numbers are on a log10 scale; they represent Ke in nM.

COc1cccc([C@]2(C)CCN(C[C@@H](NC(=O)[C@@]3(C)Cc4ccc(O)cc4CN3)C(C)C)C[C@@H]2C)c1	-0.59
COc1cccc([C@]2(C)CCN(C[C@@H](NC(=O)[C@H]3Cc4ccc(O)cc4CN3)C(C)C)C[C@@H]2C)c1	-1.43
CC[C@H](C)[C@@H](CN1CC[C@@](C)(c2cccc(OC)c2)[C@@H](C)C1)NC(=O)[C@H]1Cc2ccc(O)cc2CN1	-0.02
CC[C@H](C)[C@@H](CN1CC[C@@](C)(c2cccc(OC)c2)[C@@H](C)C1)NC(=O)[C@H]1Cc2ccc(O)cc2CN1C	0.31
COc1cccc([C@]2(C)CCN(C[C@@H](NC(=O)[C@@]3(C)Cc4ccc(OC)cc4CN3)C(C)C)C[C@@H]2C)c1	1.18

Input `COc1ccc2c(c1)CN(C)[C@@](C)(C(=O)N[C@H](CN1CC[C@@](C)(c3cccc(O)c3)[C@@H](C)C1)C(C)C)C2` . Output log10 of Ke: 0.34

Item: `CC(C)[C@@H](CN1CC[C@@](C)(c2cccc(O)c2)[C@@H](C)C1)NC(=O)[C@@]1(C)Cc2ccc(O)cc2CN1` | log10 of Ke: -1.52
